System: Tel-cKit/T670I-BaF3
Assay: Proliferation of Tel-cKit/T670I-BaF3 cells, CCK8 cell viability assay
Format: cell-based
Conditions: Mus musculus, 72 hours, stably expressing cKIT/T670I
Listing of recorded GI50 by entry.
property-measured: GI50

{"compound": "CC(=O)Nc1cc(Oc2ccc(NC(=O)Cc3cc(C)ccc3C)cc2)ncn1", "result": "> 10 µM"}
{"compound": "CC(=O)Nc1cc(Oc2ccc(NC(=O)Cc3ccccc3C(F)(F)F)cc2)ncn1", "result": "> 10 µM"}
{"compound": "Cc1ccc(NC(=O)NC2CCC(Oc3cc(NCCN)ncn3)CC2)cc1C(F)(F)F (stereo not shown)", "result": "0.641 µM"}
{"compound": "CC(=O)Nc1cc(Oc2ccc(NC(=O)C(O)c3ccccc3F)cc2)ncn1 (stereo not shown)", "result": "> 10 µM"}

---

Test system: Tel-cKit/T670I-BaF3
Assay: Proliferation of Tel-cKit/T670I-BaF3 cells, CCK8 cell viability assay
Assay type: cell-based
Settings: Mus musculus, 72 hours, stably expressing cKIT/T670I

{"compound": "CC(=O)Nc1cc(Sc2ccc(NC(=O)Cc3ccccc3C(F)(F)F)cc2)ncn1", "GI50": "> 10 µM"}
{"compound": "CC(=O)Nc1cc(Oc2ccc(NC(=O)Cc3cc(Cl)ccc3C(F)(F)F)cc2)ncn1", "GI50": "> 10 µM"}
{"compound": "CC(=O)Nc1cc(Oc2ccc(NC(=O)C(O)c3ccc(Br)cc3)cc2)ncn1 (stereo not drawn)", "GI50": "> 10 µM"}

---

Test system: Tel-RET-BaF3
Assay: Proliferation of Tel-RET-BaF3 cells, CCK8 cell viability assay
Assay type: cell-based
Details: Mus musculus, 72 hours, stably expressing RET kinase
property-measured: GI50

{"compound": "COc1cc(CC(=O)Nc2ccc(Oc3cc(NC(C)=O)ncn3)cc2)ccc1O [Example 11]", "result": "> 10 µM"}
{"compound": "CC(=O)Nc1cc(Oc2ccc(NC(=O)Cc3ccc(F)cc3F)cc2)ncn1 [Example 5]", "result": "> 10 µM"}
{"compound": "CC(=O)Nc1cc(Oc2ccc(NC(=O)Cc3ccccc3C(F)(F)F)cc2)ncn1 [Example 135]", "result": "> 10 µM"}

---

Test system: BaF3
Assay: Proliferation of BaF3 cells, CCK8 cell viability assay
Format: cell-based
Settings: Mus musculus, 72 hours
Listing of recorded GI50 by entry.
property-measured: GI50

{"molecule": "CC(=O)Nc1cc(Oc2ccc(NC(=O)Cc3ccc4ccccc4c3)cc2)ncn1", "target-desc": "BaF3", "property-measured": "GI50", "result": "> 10 µM"}
{"molecule": "CC(=O)Nc1cc(Oc2ccc(NC(=O)C(O)c3ccc(Br)cc3)cc2)ncn1 (stereo not drawn)", "target-desc": "BaF3", "property-measured": "GI50", "result": "> 10 µM"}
{"molecule": "CC(C)C(=O)Nc1cc(Oc2ccc(NC(=O)Cc3ccccc3C(F)(F)F)cc2)ncn1", "target-desc": "BaF3", "property-measured": "GI50", "result": "> 10 µM"}

---

Test system: FLT3-ITD-BaF3
Assay: Proliferation of FLT3-ITD-BaF3 cells, CCK8 cell viability assay
Format: cell-based
Details: Mus musculus, 72 hours, stably expressing FLT3/ITD
Decide using GI50 alone. Strictly below 60 nM: yes (1). Equal to or above 60 nM: no (0).

{"compound": "COCCNc1cc(O[C@H]2CC[C@H](NC(=O)Nc3ccc(C)c(C(F)(F)F)c3)CC2)ncn1", "qualitative-label": "no (0)"}
{"compound": "CC(=O)Nc1cc(Oc2ccc(NC(=O)Cc3ccccc3C)cc2)ncn1", "qualitative-label": "no (0)"}
{"compound": "COc1ccc(CNc2cc(Oc3ccc(NC(=O)Nc4ccc(CN5CCNCC5)c(C(F)(F)F)c4)cc3)ncn2)cc1", "qualitative-label": "yes (1)"}
{"compound": "CCCC(=O)Nc1cc(Oc2ccc(NC(=O)Cc3ccccc3C(F)(F)F)cc2)ncn1", "qualitative-label": "no (0)"}
{"compound": "CC(=O)Nc1cc(Oc2ccc(NC(=O)Cc3cccc(Cl)c3)cc2)ncn1", "qualitative-label": "yes (1)"}
{"compound": "CC(=O)Nc1cc(Oc2ccc(NC(=O)Cc3ccc(C)c(C)c3)cc2)ncn1", "qualitative-label": "yes (1)"}
{"compound": "CC(=O)Nc1cc(Oc2ccc(NC(=O)Cc3ccc4ccccc4c3)cc2)ncn1", "qualitative-label": "yes (1)"}
{"compound": "CC(=O)Nc1cc(Oc2ccc(NC(=O)Cc3ccc(F)c(F)c3)cc2)ncn1", "qualitative-label": "yes (1)"}
{"compound": "C=CC(=O)NCCNc1cc(Nc2ccc(CC(=O)Nc3ccc(C)c(C(F)(F)F)c3)cc2)ncn1", "qualitative-label": "no (0)"}
{"compound": "Cc1ccc(NC(=O)Nc2ccc(Oc3cc(N(C)CCO)ncn3)cc2)cc1C(F)(F)F", "qualitative-label": "yes (1)"}
{"compound": "CCCCC(=O)Nc1cc(Oc2ccc(NC(=O)Cc3ccccc3C(F)(F)F)cc2)ncn1", "qualitative-label": "no (0)"}
{"compound": "CC(=O)Nc1cc(Oc2ccc(CC(=O)Nc3ccccc3)cc2)ncn1", "qualitative-label": "no (0)"}
{"compound": "Cc1ccc(NC(=O)Nc2ccc(Oc3cc(N4CCN(C(=O)OC(C)(C)C)C[C@H]4CO)ncn3)cc2)cc1C(F)(F)F", "qualitative-label": "no (0)"}
{"compound": "Cc1ccc(NC(=O)N[C@H]2CC[C@H](Oc3cc(NCCN)ncn3)CC2)cc1C(F)(F)F", "qualitative-label": "no (0)"}
{"compound": "COCCNc1cc(Oc2ccc(NC(=O)Nc3ccc(C(F)(F)F)cc3)cc2)ncn1", "qualitative-label": "no (0)"}
{"compound": "CC(=O)Nc1cc(Oc2ccc(NC(=O)C(O)c3ccc(Br)cc3)cc2)ncn1 (stereo not drawn)", "qualitative-label": "no (0)"}
{"compound": "CC(=O)Nc1cc(Oc2ccc(NC(=O)Cc3cc(C)ccc3C)cc2)ncn1", "qualitative-label": "no (0)"}
{"compound": "CC(=O)Nc1cc(Oc2ccc(NC(=O)Cc3cccc(F)c3F)cc2)ncn1", "qualitative-label": "no (0)"}

---

Test system: FLT3-ITD-BaF3
Experiment: Proliferation of FLT3-ITD-BaF3 cells, CCK8 cell viability assay
Format: cell-based
Settings: Mus musculus, 72 hours, stably expressing FLT3/ITD
Decide using GI50 alone. Strictly below 100 nM: yes (1). Equal to or above 100 nM: no (0).

{"compound": "Cc1ccc(NC(=O)Nc2ccc(Oc3cc(NCCN4CCCC4)ncn3)cc2)cc1C(F)(F)F", "target-desc": "FLT3-ITD-BaF3", "qualitative-label": "yes (1)"}
{"compound": "Cc1ccc(NC(=O)Nc2ccc(Oc3cc(N[C@H](C)CNC(=O)OC(C)(C)C)ncn3)cc2)cc1C(F)(F)F", "target-desc": "FLT3-ITD-BaF3", "qualitative-label": "yes (1)"}
{"compound": "COc1cc(CC(=O)Nc2ccc(Oc3cc(NC(C)=O)ncn3)cc2)ccc1O", "target-desc": "FLT3-ITD-BaF3", "qualitative-label": "no (0)"}
{"compound": "Cc1ccc(NC(=O)NC2CCC(Oc3cc(NCCO)ncn3)CC2)cc1C(F)(F)F (stereo not drawn)", "target-desc": "FLT3-ITD-BaF3", "qualitative-label": "no (0)"}
{"compound": "CC(=O)Nc1cc(Oc2ccc(NC(=O)Cc3cccc(Oc4ccccc4)c3)cc2)ncn1", "target-desc": "FLT3-ITD-BaF3", "qualitative-label": "no (0)"}
{"compound": "CC(=O)Nc1cc(Oc2ccc(NC(=O)Cc3cccc([N+](=O)[O-])c3C)cc2)ncn1", "target-desc": "FLT3-ITD-BaF3", "qualitative-label": "yes (1)"}
{"compound": "CC(=O)Nc1cc(Sc2ccc(NC(=O)Cc3ccccc3C(F)(F)F)cc2)ncn1", "target-desc": "FLT3-ITD-BaF3", "qualitative-label": "no (0)"}
{"compound": "CC(=O)Nc1cc(Oc2ccc(NC(=O)Cc3ccccc3I)cc2)ncn1", "target-desc": "FLT3-ITD-BaF3", "qualitative-label": "yes (1)"}

---

Listing of recorded GI50 by entry.
System: TEL-VEGFR2-BaF3
Assay: Proliferation of TEL-VEGFR2-BaF3 cells, CCK8 cell viability assay
Type: cell-based
Details: Mus musculus, 72 hours, stably expressing VEGFR2 kinase

{"molecule": "Cc1ccc(NC(=O)Nc2ccc(Oc3cc(NC4CCNCC4)ncn3)cc2)cc1C(F)(F)F [Example 103]", "target-desc": "TEL-VEGFR2-BaF3", "GI50": "2890 nM"}
{"molecule": "CC(=O)Nc1cc(Oc2ccc(NC(=O)Cc3cccc(Br)c3)cc2)ncn1 [Example 13]", "target-desc": "TEL-VEGFR2-BaF3", "GI50": "566 nM"}
{"molecule": "Cc1ccc(NC(=O)Nc2ccc(Oc3cc(NC4CCN(C(=O)OC(C)(C)C)CC4)ncn3)cc2)cc1C(F)(F)F [Example 99]", "target-desc": "TEL-VEGFR2-BaF3", "GI50": "202 nM"}
{"molecule": "CC(=O)Nc1cc(Oc2ccc(NC(=O)Cc3ccc(Cl)cc3Cl)cc2)ncn1 [Example 8]", "target-desc": "TEL-VEGFR2-BaF3", "GI50": "139 nM"}
